Test: Solubility in Milli-RO water and pH buffers
Assay type: physicochemical
Details: pH 9.0 buffer, pH 9, aqueous buffer; read-out: solubility, pH 9.0 Buffer
reported.metric: solubility (µg/mL)

1) O=C(O)c1ccc(C[C@]2(C3=Cc4ccccc4C3)Cc3ccccc3[C@H]2O)cc1 [Compound 5] | 370

---

Tested on: IL2 release from Jurkat cells
Test: Effect of compounds on IL-2 secretion in T lymphocytes (Jurkat 6.1, anti-CD3/anti-CD28 stimulated, ELISA)
Assay type: cell-based
Conditions: compound 10 uM, 30 min pre-treatment, 24 h; DMSO control 320.67 (plate 2), 338.25 (plate 3)
reported.metric: IL-2 production, absolute values (pg/mL)

1. CNC(=O)c1ccc(C[C@]2(C3=Cc4ccccc4C3)Cc3ccccc3[C@@H]2OC(=O)[C@@H](N)CC(C)C)cc1 | 79.00
2. CCOC(=O)c1ccc(C[C@]2(C3=Cc4ccccc4C3)Cc3ccccc3[C@@H]2OC(=O)[C@@H](N)CC(C)C)cc1 | 74.38
3. CCCOC(=O)c1ccc(C[C@]2(C3=Cc4ccccc4C3)Cc3ccccc3[C@@H]2O)cc1 | 132.44
4. CN(C)C(=O)c1ccc(C[C@@]2(C3=Cc4ccccc4C3)Cc3ccccc3[C@H]2O)cc1 | 193.56
5. CNC(=O)c1ccc(C[C@@]2(C3=Cc4ccccc4C3)Cc3ccccc3[C@H]2OC(=O)[C@@H](N)CC(C)C)cc1 | 12.43
6. NC(=O)c1ccc(C[C@]2(C3=Cc4ccccc4C3)Cc3ccccc3[C@@H]2O)cc1 | 151.78
7. COC(=O)c1ccc(C[C@]2(C3=Cc4ccccc4C3)Cc3ccccc3[C@@H]2OC(=O)[C@@H](N)CC(C)C)cc1 | 74.88
8. O=C(O)c1ccc(C[C@@]2(C3=Cc4ccccc4C3)Cc3ccccc3[C@@H]2O)cc1 | 94.21
9. COC(=O)c1ccc(C[C@@]2(C3=Cc4ccccc4C3)Cc3ccccc3[C@H]2OC(=O)[C@@H](N)CC(C)C)cc1 | 40.69
10. O=C(Nc1ccc(O)c(C(=O)O)c1)c1ccc(C[C@]2(C3=Cc4ccccc4C3)Cc3ccccc3[C@@H]2O)cc1 | 72.07
11. O=C(NCCO)c1ccc(C[C@]2(C3=Cc4ccccc4C3)Cc3ccccc3[C@@H]2O)cc1 | 146.44
12. CC(C)[C@H](N)C(=O)O[C@H]1c2ccccc2C[C@]1(Cc1ccc(C(=O)O)cc1)C1=Cc2ccccc2C1 | 174.25
13. NCC(=O)O[C@H]1c2ccccc2C[C@]1(Cc1ccc(C(=O)O)cc1)C1=Cc2ccccc2C1 | 172.88
14. CCOC(=O)c1ccc(C[C@@]2(C3=Cc4ccccc4C3)Cc3ccccc3[C@H]2O)cc1 | 79.56
15. CC(C)[C@H](N)C(=O)O[C@@H]1c2ccccc2C[C@@]1(Cc1ccc(C(=O)O)cc1)C1=Cc2ccccc2C1 | 177.88
16. O=C(O)c1ccc(C[C@@]2(C3=Cc4ccccc4C3)Cc3ccccc3[C@H]2O)cc1 (single isomer, unassigned) | 124.36
17. CN(C)C(=O)c1ccc(C[C@]2(C3=Cc4ccccc4C3)Cc3ccccc3[C@@H]2O)cc1 | 171.78
18. CC(C)C[C@H](N)C(=O)O[C@@H]1c2ccccc2C[C@@]1(Cc1ccc(C(N)=O)cc1)C1=Cc2ccccc2C1 | 49.57
19. CCCOC(=O)c1ccc(C[C@@]2(C3=Cc4ccccc4C3)Cc3ccccc3[C@H]2O)cc1 | 81.00
20. NC(=O)c1ccc(C[C@@]2(C3=Cc4ccccc4C3)Cc3ccccc3[C@H]2O)cc1 | 141.78
